study-system: human Yes1 enzyme (Homo sapiens, UniProt P07947)
Construct: made in house
Sequence (P07947 whole entry): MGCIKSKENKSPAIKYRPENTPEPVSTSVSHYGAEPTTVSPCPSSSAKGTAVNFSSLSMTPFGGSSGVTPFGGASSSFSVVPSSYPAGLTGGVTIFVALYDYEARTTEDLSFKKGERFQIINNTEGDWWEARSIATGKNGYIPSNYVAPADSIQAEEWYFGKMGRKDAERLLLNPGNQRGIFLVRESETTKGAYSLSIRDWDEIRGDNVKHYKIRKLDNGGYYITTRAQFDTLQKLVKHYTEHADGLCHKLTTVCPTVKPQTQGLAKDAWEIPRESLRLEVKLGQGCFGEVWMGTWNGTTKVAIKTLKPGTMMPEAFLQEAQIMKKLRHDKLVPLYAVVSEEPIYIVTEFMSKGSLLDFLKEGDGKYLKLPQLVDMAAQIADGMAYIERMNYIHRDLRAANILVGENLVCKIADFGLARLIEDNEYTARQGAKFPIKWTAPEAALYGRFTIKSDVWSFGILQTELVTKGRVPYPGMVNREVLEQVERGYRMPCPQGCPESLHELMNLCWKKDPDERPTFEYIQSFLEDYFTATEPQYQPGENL
protocol-text: Yes1 enzyme inhibitory activity (time-resolved fluorometry, biotinylated peptide phosphorylation)
Format: biochemical
condition-notes: read-out: YES_IC50
property-name: pIC50
The scale used: pIC50 is minus the common logarithm of the concentration in molar units.

> print(dat)
                                   molecule  property.name  recorded.measurement
1  Cc1cc(-n2ncc(C(=O)c3cc4cc(OC5CCN(C(C)C)CC5)c(-c5cnn(C)c5)cc4[nH]3)c2N)ccc1Oc1ccccc1F          pIC50                  8.82

Please give the measured pIC50 for this compound: `Cc1cc2cc(C(=O)c3cnn(-c4ccc(Oc5ccccc5F)c(F)c4F)c3N)[nH]c2cc1NS(C)(=O)=O`
9.00

Proceed to `Cc1cc(Oc2c(F)cccc2F)ncc1-n1ncc(C(=O)c2cc3cc(OC4CCN(CCO)CC4)c(Br)cc3[nH]2)c1N`
9.47

Proceed to `Cc1cc(Oc2c(F)cccc2F)ncc1-n1ncc(C(=O)c2cc3cc(OC4CCN(C5CCC5)CC4)c(Br)cc3[nH]2)c1N`
9.18

Proceed to `Cc1cc(-n2ncc(C(=O)c3cc4cc(OC5CCN(C(C)C)CC5)c(N5C(=O)N[C@@H](C(C)C)C5=O)cc4[nH]3)c2N)ccc1Oc1ccccc1F`
8.82

Proceed to `Cc1cc2cc(C(=O)c3cnn(-c4cnc(Oc5c(F)cccc5F)cc4C)c3N)[nH]c2cc1N1C(=O)NC2(CCN(C3COC3)CC2)C1=O`
8.66

----------
Documented pIC50 across a set of compounds
study-system: human Yes1 enzyme (Homo sapiens)
Construct: made in house
protocol-text: Yes1 enzyme inhibitory activity (time-resolved fluorometry, biotinylated peptide phosphorylation)
Format: biochemical
condition-notes: biotinylated peptide phosphorylation, read-out: YES_IC50
The scale used: pIC50 is minus the common logarithm of the concentration in molar units.

Here's what some known entries look like.
> print(dat)
                                   compound                      study.system  property.name  recorded.measurement
1  Cc1cc(Oc2ccccc2F)ncc1-n1ncc(C(=O)c2cc3cc(OC(F)F)c(N4CCCC4=O)cc3[nH]2)c1N [Example 4-25-014]  human Yes1 enzyme (Homo sapiens)          pIC50                  8.96
2  Cc1cc2cc(C(=O)c3cnn(-c4cnc(Oc5ccccc5F)cc4C)c3N)[nH]c2cc1NS(=O)(=O)c1cccc(C(F)(F)F)n1 [Example 5-1-486]  human Yes1 enzyme (Homo sapiens)          pIC50                  8.14
3  Cc1cc(Oc2ccccc2F)ncc1-n1ncc(C(=O)c2cc3cc(NS(C)(=O)=O)c(Cl)cc3[nH]2)c1N [Example 4-2-096]  human Yes1 enzyme (Homo sapiens)          pIC50                  9.42
4  Cc1cc2cc(C(=O)c3cnn(-c4cnc(Oc5ccccc5F)cc4C)c3N)[nH]c2cc1NS(=O)(=O)c1cccc(C#N)n1 [Example 5-1-479]  human Yes1 enzyme (Homo sapiens)          pIC50                  8.48
5  Cc1cc(Oc2c(F)cccc2F)ncc1-n1ncc(C(=O)c2cc3cc(OC(F)F)c(N4CCCS4(=O)=O)cc3[nH]2)c1N [Example 4-25-005]  human Yes1 enzyme (Homo sapiens)          pIC50                  8.41

Which measured pIC50 belongs to Cc1cc(Oc2c(F)cccc2F)ncc1-n1ncc(C(=O)c2cc3cc(F)c(NS(=O)(=O)C4CC4)cc3[nH]2)c1N [Example 4-2-044] , tested on human Yes1 enzyme (Homo sapiens)?
8.15

----------
study-system: human Lck enzyme (Homo sapiens, UniProt P06239)
Construct: purchased Carna Biosciences, Inc. 08-170
Sequence (P06239 whole entry): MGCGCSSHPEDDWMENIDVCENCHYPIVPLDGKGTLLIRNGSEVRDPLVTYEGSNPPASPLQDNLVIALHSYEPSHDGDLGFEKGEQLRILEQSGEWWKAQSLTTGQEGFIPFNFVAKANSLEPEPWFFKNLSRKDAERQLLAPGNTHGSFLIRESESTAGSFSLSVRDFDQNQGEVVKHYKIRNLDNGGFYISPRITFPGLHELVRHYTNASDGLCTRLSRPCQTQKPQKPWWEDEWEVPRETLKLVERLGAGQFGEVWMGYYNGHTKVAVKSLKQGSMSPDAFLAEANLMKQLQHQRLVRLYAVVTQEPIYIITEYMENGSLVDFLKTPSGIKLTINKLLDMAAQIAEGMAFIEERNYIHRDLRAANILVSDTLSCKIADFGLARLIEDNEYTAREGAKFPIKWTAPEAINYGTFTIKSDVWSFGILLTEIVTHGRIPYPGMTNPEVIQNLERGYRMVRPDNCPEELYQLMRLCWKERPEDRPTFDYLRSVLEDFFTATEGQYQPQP
protocol-text: Lck enzyme inhibitory activity (time-resolved fluorometry, biotinylated peptide phosphorylation)
Type: biochemical
condition-notes: biotinylated peptide phosphorylation, read-out: LCK_IC50
property-name: pIC50
The scale used: pIC50 is minus the common logarithm of the concentration in molar units.

Here's what some known entries look like.
> print(dat)
                                   compound  recorded.measurement
1  Cc1cc(-n2ncc(C(=O)c3cc4cc(C)c(N5C(=O)NC6(CCC6)C5=O)cc4[nH]3)c2N)ccc1Oc1ccccc1F [Example 5-1-468]                  6.37
2  COc1cc2cc(C(=O)c3cnn(-c4ccc(Oc5ccccc5F)cc4C)c3N)[nH]c2cc1NS(=O)(=O)N1CCOCC1 [Example 4-12-003]                  7.85
3  Cc1cc(Oc2ccccc2F)ncc1-n1ncc(C(=O)c2cc3cc(OCC(F)F)c(NC4COC4)cc3[nH]2)c1N [Example 4-23-020]                  8.42
4  Cc1cc(Oc2c(F)cccc2F)ncc1-n1ncc(C(=O)c2cc3cc(C4CC4)c(NS(=O)(=O)CCCF)cc3[nH]2)c1N [Example 5-1-427]                  7.37
5  Cc1cc(Oc2cccc(F)c2F)ccc1-n1ncc(C(=O)c2cc3cc(F)c(NS(=O)(=O)CCCF)cc3[nH]2)c1N [Example 4-2-016]                  7.72

Kindly consider the entry below.
Which measured pIC50 belongs to Cc1cc2cc(C(=O)c3cnn(-c4ccc(Oc5ccccc5F)cc4C)c3N)[nH]c2cc1N1C(=O)NC(C)(C(F)(F)F)C1=O (stereo not drawn) [Example 5-1-435] , tested on human Lck enzyme (Homo sapiens, UniProt P06239)?
7.68

----------
Documented IC50 across a set of compounds
study-system: human Yes1 enzyme (Homo sapiens)
Construct: made in house
protocol-text: Yes1 enzyme inhibitory activity (time-resolved fluorometry, biotinylated peptide phosphorylation)
Type: biochemical
condition-notes: read-out: YES_IC50
Reply with just the number (in nM).

Here's what some known entries look like.
> print(dat)
                                   compound  unit  recorded.measurement
1  Cc1cc2cc(C(=O)c3cnn(-c4c(C)cc(Oc5ccccc5F)cc4F)c3N)[nH]c2cc1N1CCC(N2CCOCC2)CC1 [Example 5-1-085]    nM                   2.3
2  Cc1cc(Oc2cc(F)cc(F)c2)ncc1-n1ncc(C(=O)c2cc3cc(F)c(NS(C)(=O)=O)cc3[nH]2)c1N [Example 5-1-038]    nM                    16

Please give the measured IC50 for this compound: Cc1cc(-n2ncc(C(=O)c3cc4cc(OCC(F)F)c(N5CCN(S(C)(=O)=O)CC5)cc4[nH]3)c2N)ccc1Oc1ccccc1F [Example 5-1-171]
1.1

----------
study-system: human Yes1 enzyme (Homo sapiens, UniProt P07947)
Construct: made in house
protocol-text: Yes1 enzyme inhibitory activity (time-resolved fluorometry, biotinylated peptide phosphorylation)
Type: biochemical
condition-notes: read-out: YES_IC50
property-name: IC50 (nM)
Reply with just the number (in nM).

Here's what some known entries look like.
> print(dat)
                                   molecule  property.name  unit  recorded.measurement
1  Cc1cc(Oc2ccccc2F)ccc1-n1ncc(C(=O)c2cc3cc(OCC(F)F)c(N4C(=O)[C@@H]5C[C@H](NC(=O)OCc6ccccc6)CN5C4=O)cc3[nH]2)c1N           IC50    nM                   1.8
2  Cc1cc(-n2ncc(C(=O)c3cc4cc(OC(F)F)c(N)cc4[nH]3)c2N)ccc1Oc1ccccc1F           IC50    nM                   2.8
3  Cc1cc(Oc2ccccc2F)ccc1-n1ncc(C(=O)c2cc3cc(F)c(N4CC(C)(C)NS4(=O)=O)cc3[nH]2)c1N           IC50    nM                   1.9
4  Cc1cc(Oc2c(F)cccc2F)ncc1-n1ncc(C(=O)c2cc3cc(OC4CCN(C5CS(=O)(=O)C5)CC4)c(-c4ccccc4Cl)cc3[nH]2)c1N           IC50    nM                   2.1
5  Cc1cc(Oc2ccccc2F)ccc1-n1ncc(C(=O)c2cc3cc(OC4CCN(C(C)C)CC4)c(N4CCN(S(C)(=O)=O)CC4)cc3[nH]2)c1N           IC50    nM                  0.48

Kindly consider the entry below.
Please give the measured IC50 for this compound: `Cc1cc(-n2ncc(C(=O)c3cc4cc(OCC(F)F)c(N)cc4[nH]3)c2N)ccc1Oc1ccccc1F`
2.1

----------
study-system: human Yes1 enzyme (Homo sapiens, UniProt P07947)
Construct: made in house
protocol-text: Yes1 enzyme inhibitory activity (time-resolved fluorometry, biotinylated peptide phosphorylation)
Assay type: biochemical
condition-notes: read-out: YES_IC50
Documented IC50 across a set of compounds
Reply with just the number (in nM).

Here's what some known entries look like.
> print(dat)
                                   compound  property.name  recorded.measurement
1  Cc1cc(Oc2ccccc2F)ncc1-n1ncc(C(=O)c2cc3cc(F)c(NS(=O)(=O)C4CCOCC4)cc3[nH]2)c1N           IC50                   2.8
2  Cc1cc2cc(C(=O)c3cnn(-c4cnc(Oc5c(F)cccc5F)cc4C)c3N)[nH]c2cc1N1C(=O)NC2(CCN(C3COC3)C2)C1=O (stereo not shown)           IC50                     2

Kindly consider the entry below.
Which measured IC50 belongs to `Cc1cc2cc(C(=O)c3cnn(-c4ccc(Oc5ccccc5F)c(C)c4C)c3N)[nH]c2cc1NS(C)(=O)=O` , tested on human Yes1 enzyme (Homo sapiens, UniProt P07947)?
9.8

The origin of these recorded values is patent US10479780B2.
